The measurements presented in this section are drawn from the RNAGym collection of RNA variant scans (doi:10.7554/elife.80360).

B1: Hairpin Ribozyme (parent)
chain: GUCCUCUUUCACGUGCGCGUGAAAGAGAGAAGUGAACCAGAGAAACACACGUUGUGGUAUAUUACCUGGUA

# Variants of: B1
# Assay name: self-cleavage, relative activity (ratio to wild type); higher = more cleavage; co-transcriptional
Documented self-cleavage across a set of variants
No unit in the answer, please; the number alone is enough.

| Mutation notation | Assay value |
| --- | --- |
| G27U A36C | 0.0992 |
| G19U A24G | 0.926 |
| A45G G56A | 0.183 |

IN: Reported self-cleavage, variant A11U G29U : ____
OUT: 0.0998

IN: Reported self-cleavage, variant G51A A71U : ____
OUT: 0.718

IN: Reported self-cleavage, variant C38U C46A : ____
OUT: 0.182

IN: Reported self-cleavage, variant A35G C48G : ____
OUT: 0.213
